- Target: C481S BTK (Homo sapiens, UniProt Q06187, C481S)
- Sequence (Q06187 whole entry C481S): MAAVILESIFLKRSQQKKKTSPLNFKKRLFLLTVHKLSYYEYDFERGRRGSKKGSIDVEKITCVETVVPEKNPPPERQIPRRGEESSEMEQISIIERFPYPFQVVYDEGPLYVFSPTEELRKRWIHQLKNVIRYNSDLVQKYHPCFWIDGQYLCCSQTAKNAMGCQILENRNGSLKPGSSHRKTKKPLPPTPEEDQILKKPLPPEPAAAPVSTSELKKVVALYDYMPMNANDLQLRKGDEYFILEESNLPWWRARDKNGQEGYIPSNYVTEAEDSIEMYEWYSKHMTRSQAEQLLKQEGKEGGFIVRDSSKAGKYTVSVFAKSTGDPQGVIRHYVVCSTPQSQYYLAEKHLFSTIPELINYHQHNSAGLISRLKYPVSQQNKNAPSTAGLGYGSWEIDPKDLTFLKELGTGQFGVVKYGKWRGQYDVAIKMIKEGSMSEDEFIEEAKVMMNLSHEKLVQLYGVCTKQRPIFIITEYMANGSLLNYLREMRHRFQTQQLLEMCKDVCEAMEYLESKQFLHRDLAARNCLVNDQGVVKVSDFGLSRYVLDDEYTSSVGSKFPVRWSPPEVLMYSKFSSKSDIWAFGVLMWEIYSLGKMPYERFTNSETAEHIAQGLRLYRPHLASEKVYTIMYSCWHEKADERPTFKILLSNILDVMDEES
- Assay Procedure: Caliper-based kinase assay, C481S BTK
- Type: biochemical
- Recorded Conditions: 0.5 nM enzyme, 16 μM ATP, 3 h at room temperature; read-out: C481S BTK IC50 (nM) (reversible inhibition)
Quantity Name: IC50 (nM)
Write the value in nM as a bare number.

Q: Answer with the recorded IC50 of `C=CC(=O)Nc1cc(Nc2nc(-c3ccnc(N4CCc5c(sc6c5CC(C)(C)C6)C4=O)c3CO)cn(C)c2=O)ccc1N1CCN(C2COC2)C[C@@H]1C` only.
A: 0.46

* * *

compounds and their reported IC50
- Target: WT BTK (Homo sapiens)
- Sequence (Q06187 whole entry): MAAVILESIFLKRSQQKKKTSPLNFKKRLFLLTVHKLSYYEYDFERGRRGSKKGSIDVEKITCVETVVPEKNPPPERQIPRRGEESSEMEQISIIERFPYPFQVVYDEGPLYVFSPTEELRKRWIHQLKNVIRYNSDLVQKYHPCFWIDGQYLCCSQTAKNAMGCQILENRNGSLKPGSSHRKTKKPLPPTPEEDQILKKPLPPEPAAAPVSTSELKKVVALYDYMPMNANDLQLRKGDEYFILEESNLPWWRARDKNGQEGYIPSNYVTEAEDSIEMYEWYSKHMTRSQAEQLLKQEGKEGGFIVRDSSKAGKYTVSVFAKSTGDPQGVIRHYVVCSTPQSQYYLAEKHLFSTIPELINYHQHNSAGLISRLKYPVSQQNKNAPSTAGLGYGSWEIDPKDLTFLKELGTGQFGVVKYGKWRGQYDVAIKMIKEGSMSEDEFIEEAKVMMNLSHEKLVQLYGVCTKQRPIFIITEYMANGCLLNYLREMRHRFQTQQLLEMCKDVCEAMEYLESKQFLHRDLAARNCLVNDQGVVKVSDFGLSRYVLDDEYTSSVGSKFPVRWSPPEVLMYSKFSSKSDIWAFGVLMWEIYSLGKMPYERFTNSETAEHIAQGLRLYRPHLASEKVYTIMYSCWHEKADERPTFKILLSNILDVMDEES
- Assay Procedure: Caliper-based kinase assay, WT BTK
- Assay type: biochemical
- Recorded Conditions: 0.5 nM enzyme, 16 μM ATP, 3 h at room temperature; read-out: WT BTK IC50 (nM) (irreversible inhibition)

| Smiles Entry | IC50 |
| --- | --- |
| C=CC(=O)Nc1cc(Nc2nc(-c3ccnc(N4CCc5ncccc5C4=O)c3CO)cn(C)c2=O)ccc1N1CCN(C2COC2)C[C@@H]1C | > 100 nM |
| C=CC(=O)Nc1cc(Nc2nc(-c3ccnc(N4CCn5c(cc6c5CC(C)(C)C6)C4=O)c3C(F)(F)F)cn(C)c2=O)ccc1N1CCN(C2COC2)C[C@@H]1C | > 100 nM |
| C=CC(=O)Nc1cc(Nc2nc(-c3ccnc(N4CCc5c(sc6c5CC(C)(C)C6)C4=O)c3CO)cn(C)c2=O)ccc1N1CCN(C2COC2)C[C@@H]1C | 0.073 nM |
| C=CC(=O)Nc1cc(Nc2nc(-c3ccnc(N4CCc5ccncc5C4=O)c3CO)cn(C)c2=O)ccc1N1CCN(C2COC2)C[C@@H]1C | > 100 nM |

Okay, now this compound:
Q: Answer with the recorded IC50 of `C=CC(=O)Nc1cc(Nc2nc(-c3ccnc(N4CCc5cccnc5C4=O)c3CO)cn(C)c2=O)ccc1N1CCN(C2COC2)C[C@@H]1C` only.
A: > 100 nM
